procedureDetails: Cytotoxicity against human MT4 cells assessed as reduction in cell viability by MTT assay
Format: cell-based
testParameters: MT4 cells

# molecule, CC50
rows = [
    ("Cc1cc(C#N)cc(C)c1Oc1nc(Nc2ccc(C#N)cc2)nc(N)c1Br [ETRAVIRINE]", "2.16 to 4.59 µM"),
    ("Cc1cc(C#N)cc(C)c1Oc1nc(NC2CCN(Cc3n[nH]c(=O)n3C)CC2)nc2ccsc12", "> 254 µM"),
    ("Cc1cc(C#N)cc(C)c1Oc1nc(NC2CCN(Cc3ccco3)CC2)nc2ccsc12", "> 254 µM"),
]

====

Entries and their selectivity ratio values follow.
procedureDetails: Selectivity index, ratio of CC50 for human MT4 cells to EC50 for HIV1 RES056 reverse transcriptase K103N/Y181C double mutant infected in human MT4 cells
Assay type: toxicity, cell-based
testParameters: read-out: Ratio CC50/EC50

# molecule, selectivity ratio
rows = [
    ("Cc1cn([C@H]2C[C@H](N=[N+]=[N-])[C@@H](CO)O2)c(=O)[nH]c1=O [ZIDOVUDINE]", "> 448"),
    ("Cc1cc(C#N)cc(C)c1Oc1nc(NC2CCN(Cc3ccc(N4CCCC4)cc3)CC2)nc2ccsc12", "< 1"),
    ("Cc1cc(C#N)cc(C)c1Oc1nc(NC2CCN(Cc3n[nH]c(=O)n3C)CC2)nc2ccsc12", "> 15"),
]

Source of measurements: ChEMBL document CHEMBL4251740
